The entries below come with measured Stability in Powder Concentrate (content by LCMSMS) values attached.
- Type: physicochemical
- DETAILS: stored at room temperature (21-25° C.), day 180
Write it as a number; the unit mg/g powder goes unstated.

See these solved cases before continuing.
INSERT INTO results (molecule, measurement) VALUES
  ('CCCCCc1cc(O)c2c(c1)OC(C)(C)c1ccc(C)cc1-2', 0.464),
  ('CC(=O)Oc1c(C)c(C)c2c(c1C)CCC(C)(CCC[C@H](C)CCC[C@H](C)CCCC(C)C)O2 (stereo partly drawn) [α-Tocopheryl acetate]', 2.20),
  ('Cc1c(C)c2c(c(C)c1O)CC[C@@](C)(CCC[C@H](C)CCC[C@H](C)CCCC(C)C)O2', 4.70),
  ('C=C(C)[C@@H]1CCC(C)=C[C@H]1c1c(O)cc(CCCCC)c(C(=O)O)c1O', 0.422),
  ('C=C(C)[C@@H]1CCC(C)=C[C@H]1c1c(O)cc(CCC)cc1O', 0.050),
  ('CCCCCc1cc(O)c(C/C=C(\C)CCC=C(C)C)c(O)c1', 1.07);

Fill blank: measured Stability in Powder Concentrate (content by LCMSMS) of the molecule CCCCCc1cc(O)c2c(c1)OC(C)(CCC=C(C)C)C=C2 (stereo not shown) is ____.
0.071

Record: C=C(C)[C@@H]1CCC(C)=C[C@H]1c1c(O)cc(CCCCC)cc1O [CBD, cannabidiol, reference compound]
5.93

Record: CCCCCc1cc2c(c(O)c1C(=O)O)[C@@H]1C=C(C)CC[C@H]1C(C)(C)O2 [D9 THCA, delta-9-tetrahydrocannabinolic acid]
0.154

Record: CCCc1cc(O)c2c(c1)OC(C)(C)[C@@H]1CCC(C)=C[C@@H]21 [THCV, delta-9-tetrahydrocannabivarin]
0.685

Record: CCCCCc1cc(O)c2c(c1)OC(C)(C)[C@@H]1CCC(C)=C[C@@H]21 [D9 THC, delta-9-tetrahydrocannabinol, reference compound]
2.59

Record: Cc1c(C)c2c(c(C)c1OC(=O)CCC(=O)O)CC[C@@](C)(CCC[C@H](C)CCC[C@H](C)CCCC(C)C)O2 [α-Tocopheryl succinate]
1.77

Record: CCCCCc1cc(O)c2c(c1)OC1(C)CCC3C1C2C3(C)C (stereo not shown)
0.049
